Measured values drawn from patent US11299493B2 for this set.

# Tested on: Panc 10.05 cells
# procedure_details: Cytotoxicity assay (resazurin) in Panc 10.05 cells
# Type: cell-based
# run_parameters: Homo sapiens, Panc1005; Panc 10.05, resazurin; read-out: Cell Viability IC50 Panc 10.05
measurement_name: IC50 (nM)
# number only, unit nM dropped from output

compound | IC50, nM
CC(C)(C)c1cccc(-n2c3nc(Nc4ccc5c(c4)CCNC5)ncc3c(=O)n2C2CC2)n1 [Example 1.143] | 1850

Query string: Please report the recorded IC50 for CC(C)n1c(=O)c2cnc(Nc3ccc4c(c3)CCNC4)nc2n1-c1ccnc(C(C)(C)C)c1 [Example 1.138] .
Result string: 2820

Query string: Let us now turn to CC(C)(F)c1cccc(-n2c3nc(Nc4ccc5c(c4)CCNC5)ncc3c(=O)n2C2CC2)n1 [Example 1.146]
Result string: 5700

Query string: Let us now turn to CC(C)n1c(=O)c2cnc(Nc3ccc4c(c3)CCNC4)nc2n1-c1ccnc(C(C)(C)C)n1 [Example 2.183]
Result string: 805
